- Test system: HCT-15 colon
- methodDescription: NCI tumour cell line growth inhibition, 48 h
observable: TGI

Example entries and their recorded answers appear below.
Cn1c2ccccc2c2c(=O)[nH]c(=O)[nH]c21    > 100 µM
CCOC(=O)c1c(N2CCCC2)[nH]c(=O)c(C(c2ccco2)c2c(O)c(C(=O)OCC)c(N3CCCC3)[nH]c2=O)c1O    > 100 µM
O=c1[nH]c(Nc2cc(Cl)cc(Cl)c2)nc2nc[nH]c12    > 75 µM
CCOC(=O)Cc1nc2sc(S(N)(=O)=O)nn2c1Br    77.5 µM

Turning to the following compound.
Query S=c1cc(S)sc2c1c(=S)sc1nc3ccccn3c(=S)c12 on HCT-15 colon; TGI returned: > 100 µM

====

- System: NCI/ADR-RES ovarian
- methodDescription: NCI tumour cell line growth inhibition, 48 h
observable: TGI

Query CCCCN1C(=O)c2c(-c3sccc3N)sc(-c3sccc3N)c2C1=O on NCI/ADR-RES ovarian; TGI returned: > 83.2 µM

====

- System: SK-OV-3 ovarian
- methodDescription: NCI tumour cell line growth inhibition, 48 h
observable: TGI

Example entries and their recorded answers appear below.
CCCCCCCCCCCCOP(=O)(O)OCC(N)C(=O)O (centres undefined)    50.1 µM
Cn1c(-c2ccccc2)cc2c3ccsc3c3ccsc3c21    > 100 µM
O=C(O)c1cn2c3c(cc(N4CCN(CCO)CC4)cc3c1=O)SCC2    > 100 µM

Query Fc1ccc2nc3n(c2c1)C(c1c(Cl)cccc1Cl)SC3 (centres undefined) on SK-OV-3 ovarian; TGI returned: > 100 µM

Query COc1ccc2c(c1)n([O-])c1ccccc1[n+]2=O on SK-OV-3 ovarian; TGI returned: 94.8 µM

Query COc1cc2c(cc1Nc1nc(Nc3ccsc3C(N)=O)c3cc[nH]c3n1)N(C(=O)CN(C)C)CCC2(C)C on SK-OV-3 ovarian; TGI returned: 6.94 µM

Query CC1OC(OC2C(O[C@H]3CC[C@@]4(C)C(=CC[C@H]5[C@@H]6C[C@@H]7O[C@]8(CC[C@H](C)CN8)[C@@H](C)[C@@H]7[C@@]6(C)CC[C@@H]54)C3)OC(CO)C(O)C2OC2OC(CO)C(O)C(O)C2O)C(O)C(O)C1O (some centres undefined) on SK-OV-3 ovarian; TGI returned: 30.5 µM

Query CCOC(=O)Cc1nc2sc(S(N)(=O)=O)nn2c1Br on SK-OV-3 ovarian; TGI returned: > 100 µM

Query O=C(Cc1nccc2c1[nH]c1ccccc12)OC1C#CCSCC#C/C=C\1 (centres undefined) on SK-OV-3 ovarian; TGI returned: > 100 µM

====

- System: SF-539 CNS
- methodDescription: NCI tumour cell line growth inhibition, 48 h; in the data active = GI50 below about 0.43 µM; inactive = the rest
One label from this list, please: true (1) for active, false (0) for inactive

Illustrative cases are given below, each with its answer.
CN1CCN(c2ccc3nc(-c4ccc5nc(-c6ccc(OCCC(C)(C)C)cc6)[nH]c5c4)[nH]c3c2)CC1    false (0)
COc1cc(/C=C/C(=O)c2ccc(NC(=O)CN3CCN(c4cc5c(cc4F)c(=O)c(C(=O)O)cn5C4CC4)CC3)cc2)cc(OC)c1OC    false (0)

Task item: Recorded test call requested for COc1ccc(Cn2cc3c(c2-c2ccc(OC)cc2)CCc2cnoc2-3)cc1
Reply: true (1)
